Collected TGI values appear next to each entry.
# Test system: A498 renal
# protocol summary: NCI tumour cell line growth inhibition, 48 h

compound | qualifier operator | TGI, µM
COc1ccc(C2=C(c3ccc(OC)cc3)C(=O)OC2)cc1 | = | 3.66
Cc1ccc([N+](=O)[O-])cc1S(=O)(=O)Nc1ccc(C2=NN(S(=O)(=O)c3cc([N+](=O)[O-])ccc3C)C(c3cccs3)C2)cc1 (centres undefined) | = | 78.6
O=C(CSSCC(=O)c1ccc(Cl)cc1)c1ccc(Cl)cc1 | = | 23
CN(C)S(=O)(=O)c1cccc(C(=O)Nc2nc(-c3ccc(F)c(F)c3)cs2)c1 | > | 100
